biological target: T1, recombinant biotinylated CD137 protein (Fc-fusion protein, R&D Systems 838-4B) (human, UniProt Q07011 24-186, biotinylated, sites not stated); experiment: ELISA, lysate on biotinylated CD137-Fc
T1 construct: Bought Fc fusion; also called CD137-Fc

- binder: "ISOP193ER9P1D7 (designed binder, not shown: small tags and cut ends) LPAPKNLVVSRVTEDSARLSWTAPDAAFDSFDIYYGEHWKLGEAIVLTVPGSERSYDLTGLKPGTEYLVTIYGVKGGMSSNPLSAIFTT"
  ELISA CD137 (RLU): "1.1e+07"
- binder: "ISOP193AR9P1F9 (designed binder, not shown: small tags and cut ends) LPAPKNLVVSRVTEDSARLSWPLFASDLNIFDSFLIQYQESEKVGEAIVLTVPGSERSYDLTGLKPGTEYTVSIYGVGRHYTVYDSNPLSAIFTT"
  ELISA CD137 (RLU): "4.71e+06"
- binder: "ISOP193BR9P1H2 (designed binder, not shown: small tags and cut ends) LPAPKNLVVSRVTEDSARLSWPDESRPVRFDSFLIQYQESEKVGEAIVLTVPGSERSYDLTGLKPGTEYTVSIYGVHTRDWTAWNASNPLSAIFTT"
  ELISA CD137 (RLU): "3.5e+06"
- binder: "ISOP193ER9P1B5 (designed binder, not shown: small tags and cut ends) LPAPKNLVVSRVTEDSARLSWTAPDAAFDSFAIQYQEYVAHGEAIVLTVPGSERSYDLTGLKPGTEYHVRISGVKGGGVSWPLSAIVTT"
  ELISA CD137 (RLU): "1.27e+07"
- binder: "ISOP193HR9P1E3 (designed binder, not shown: small tags and cut ends) LPAPKNLVVSRVTEDSARLSWTAPDAAFDSFEIYYFELRLGGEAIVLTVPGSERSYDLTGLKPGTEYLVTIYGVKGGAYSNPLSAIFTT"
  ELISA CD137 (RLU): "1.78e+07"
- binder: "ISOP193ER9P1F7 (designed binder, not shown: small tags and cut ends) LPAPKNLVVSRVTEDSAHLSWTAPDAAFDSFDIYYFEHPVGGEAIVLTVPGSERSYDLTGLKPGTEYLVTIYGVKGGYLSMPLSAIFTT"
  ELISA CD137 (RLU): "1.51e+07"
- binder: "ISOP193GR9P1E10 (designed binder, not shown: small tags and cut ends) LPAPKNLVVSRVTEDSARLSWTAPDAAFDSFAISYTESIRQGEAIWLWVPGSERSYDLTGLKPGTEYEVTIGGVKGGIRSYPLWAWFTT"
  ELISA CD137 (RLU): "1.05e+07"
- binder: "ISOP193HR9P1G4 (designed binder, not shown: small tags and cut ends) LPAPKNLVVSRVTEDSARLSWTAPDAAFDSFEIYYFELRLGGEAIVLTVPGSERSYDLTGLKPGTEYLVTIYGVKGGDYSPPLSAIFTT"
  ELISA CD137 (RLU): "1.72e+07"
- binder: "ISOP193BR9P1B10 (designed binder, not shown: small tags and cut ends) LPAPKNLVVSRVTEDSARLSWAWNRHDFDSFLIQYQESEKVGEAIVLTVPGSERSYDLTGLKPGTEYTVSIYGVHWTVLRPFIDSNPLSAIFTT"
  ELISA CD137 (RLU): "9.73e+06"
